E. coli AG100: recorded MIC for assorted molecules

IN: Which MIC value is on record for Cc1c(CN(C)C(=O)/C=C/c2cnc3c(c2)NC[C@H](N)C(=O)N3)oc2ccccc12 [Compound 8] ?
OUT: ≤ 4 µg/mL

IN: What measured MIC goes with Cc1c(CN(C)C(=O)/C=C/c2cnc3c(c2)CC[C@H](N)C(=O)N3)oc2ccc(Oc3cccnc3)cc12.Cl (single isomer, unassigned) [Compound 151] ?
OUT: ≤ 4 µg/mL

IN: Which MIC reading was recorded for the molecule Cc1c(CN(C)C(=O)/C=C/c2cnc3c(c2)CCC(N2CCCC2)C(=O)N3)oc2ccccc12 (stereo not shown) [Compound 182] ?
OUT: ≤ 4 µg/mL

IN: // query MIC value for entry Cc1c(CN(C)C(=O)/C=C/c2cnc3c(c2)CC[C@H](N(C)C)C(=O)N3)oc2ccccc12 (single isomer, unassigned) [Compound 96]
OUT: 8 µg/mL

IN: If you can, please state the reported MIC value of Cc1oc2c(N)cccc2c1CN(C)C(=O)/C=C/c1cnc2c(c1)CCC(N1CCCC1)C(=O)N2 (stereo not shown) [Compound 191] .
OUT: 8 µg/mL

IN: Request the reported MIC associated with Cc1oc2ccccc2c1CN(C)C(=O)/C=C/c1cnc2c(c1)CC[C@H](N)C(=O)N2 [Compound 200]
OUT: ≤ 4 µg/mL

IN: What value of MIC has been reported for the following molecule? Cc1c(CN(C)C(=O)/C=C/c2cnc3c(c2)CCC(N(C)C)C(=O)N3)oc2ccccc12 (stereo not shown) [Compound 95]
OUT: ≤ 4 µg/mL

IN: Would you mind telling me what MIC value was observed for Cc1oc2ccccc2c1CN(C)C(=O)/C=C/c1cnc2c(c1)CCC(N)C(=O)N2.Cl (stereo not shown) [Compound 94] ?
OUT: 16 µg/mL

IN: Need MIC, item Cc1c(CN(C)C(=O)/C=C/c2cnc3c(c2)CC[C@H](N2CCOCC2)C(=O)N3)oc2c(F)cccc12 (single isomer, unassigned) [Compound 113]
OUT: 8 µg/mL

IN: // MIC lookup, key: Cc1c(CN(C)C(=O)/C=C/c2cnc3c(c2)CC[C@H](N2CC4(COC4)C2)C(=O)N3)oc2ccccc12 (single isomer, unassigned) [Compound 190]
OUT: ≤ 4 µg/mL

IN: // query MIC value for entry Cc1c(CN(C)C(=O)/C=C/c2cnc3c(c2)CC[C@H](N)C(=O)N3)sc2c(F)cccc12.Cl (single isomer, unassigned) [Compound 140]
OUT: ≤ 4 µg/mL

IN: Any idea what its MIC is? The molecule is Cc1c(CN(C)C(=O)/C=C/c2cnc3c(c2)CCC(N)C(=O)N3)oc2c(Cl)cccc12.O=C(O)C(F)(F)F (stereo not shown) [Compound 92]
OUT: ≤ 4 µg/mL

IN: For the molecule shown here, Cc1c(CN(C)C(=O)/C=C/c2cnc3c(c2)CC[C@H](N2CC(O)C2)C(=O)N3)oc2ccccc12 (single isomer, unassigned) [Compound 171] , give the reported MIC.
OUT: ≤ 4 µg/mL

---

# Tgt: FabI enzyme from Acinetobacter baumannii (Acinetobacter baumannii)
# Sequence (D0CAD5 entry or part of it): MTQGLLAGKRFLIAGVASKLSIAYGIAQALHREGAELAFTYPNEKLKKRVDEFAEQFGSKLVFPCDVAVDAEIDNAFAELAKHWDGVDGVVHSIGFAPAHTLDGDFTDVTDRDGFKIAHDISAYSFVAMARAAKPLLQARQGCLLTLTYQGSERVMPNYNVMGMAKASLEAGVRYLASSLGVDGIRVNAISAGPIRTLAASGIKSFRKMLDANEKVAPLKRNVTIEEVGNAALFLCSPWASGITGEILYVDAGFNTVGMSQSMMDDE
# Assay Procedure: Inhibition of FabI enzyme, rate of NADH consumption
# Assay type: biochemical
Measurement Name: IC50

IN: IC50 for Cc1c(CN(C)C(=O)/C=C/c2cnc3c(c2)CC[C@H](N)C(=O)N3)oc2ccccc12.Cl (single isomer, unassigned) [Compound 71, hydrochloride] ?
OUT: < 10 nM

IN: Recorded IC50 for Cc1c(CN(C)C(=O)/C=C/c2cnc3c(c2)CC[C@H](N)C(=O)N3)oc2ccc(Oc3cccnc3)cc12.Cl (single isomer, unassigned) [Compound 151, hydrochloride] , please?
OUT: < 10 nM

IN: Given the entry Cc1oc2ccccc2c1CN(C)C(=O)/C=C/c1cnc2c(c1)CCC(N)C(=O)N2.Cl (stereo not drawn) [Compound 94, hydrochloride] , report its measured IC50.
OUT: < 10 nM

IN: I'd like to know its IC50. The compound in question is Cc1c(CN(C)C(=O)/C=C/c2cnc3c(c2)CC(N)C(=O)N3)oc2ccccc12.Cl (stereo not drawn) [Compound 201, hydrochloride, reference compound]
OUT: 19 nM

IN: Endpoint output: IC50 of Cc1c(CN(C)C(=O)/C=C/c2cnc3c(c2)CC[C@H](N)C(=O)N3)oc2cccc(CNc3cccnc3)c12.Cl.Cl (single isomer, unassigned) [Compound 167, dihydrochloride] . Value?
OUT: < 10 nM

IN: Which IC50 value belongs to Cc1c(CN(C)C(=O)/C=C/c2cnc3c(c2)CC[C@H](N)C(=O)N3)sc2ccccc12.Cl (single isomer, unassigned) [Compound 119, hydrochloride] ?
OUT: < 10 nM
